# credit: patent US20220315567A1

Structures can show the parent of a compound that is named as a salt.
Known melting point of a selection of compounds

Solved cases (4 shown):
In [3]: df
Out[3]:
                                   compound  reported_measurement
0    CN(C)C1(CNC(=O)N2Cc3ccc(F)cc3C2)CCOCC1         241 to 243 °C
1  CN(C)C(CNC(=O)N[C@H]1CCc2ccccc2C1)c1ccsc1 (some centres unmarked)         165 to 167 °C
2  CN(C)C(CNC(=O)N1Cc2cccc(C#N)c2C1)c1ccsc1 (centres unmarked)         159 to 161 °C
3  COc1ccc(C(CNC(=O)N2Cc3ccccc3C2)N(C)C)cc1 (centres unmarked) (as salt: hydrochloride) [Compound 15a]  149 to 151 °C (dec.)

Lookup: Given the entry CN(C(=O)OC(C)(C)C)C(CNC(=O)N1Cc2ccc(F)cc2C1)c1ccsc1 (centres unmarked) , report its measured melting point.
Found: 182 to 184 °C

Lookup: Given the entry CN(C)C(CNC(=O)N1Cc2ccccc2C1)c1ccc(F)cc1Cl (centres unmarked) (as salt: hydrochloride) [Compound 14a] , report its measured melting point.
Found: 147 to 149 °C

Lookup: Given the entry CN(C)C(CNC(=O)NC1CCc2ccccc2C1)c1ccccc1 (centres unmarked) (as salt: hydrochloride) [Compound 19a] , report its measured melting point.
Found: 160 to 161 °C

Lookup: Given the entry CN(C)C(CNC(=O)N(C)C1CCCc2ccccc21)c1ccsc1 (centres unmarked) (as salt: hydrochloride) [Compound 13a] , report its measured melting point.
Found: 188 to 190 °C

Lookup: Given the entry `CN(C)C1(CNC(=O)N[C@H]2CCc3ccccc3C2)CCCC1` , report its measured melting point.
Found: 204 to 206 °C

Lookup: Given the entry CN(C)C(CNC(=O)N1Cc2ccc(F)cc2C1)c1ccc(F)cc1Cl (centres unmarked) (as salt: hydrochloride) [Compound 17a] , report its measured melting point.
Found: 173 to 174 °C (dec.)

Lookup: Given the entry CN(C)C(CNC(=O)NC1CCCc2ccccc21)c1ccsc1 (centres unmarked) (as salt: hydrochloride) [Compound 11a] , report its measured melting point.
Found: 179 to 181 °C

Lookup: Given the entry CN(C)C(CNC(=O)N1Cc2cc(F)c(F)cc2C1)c1ccsc1 (centres unmarked) (as salt: hydrochloride) , report its measured melting point.
Found: 210 to 212 °C

Lookup: Given the entry COc1ccc(C(CNC(=O)N2CCCc3cc(F)ccc32)N(C)C)cc1 (centres unmarked) [Compound 68a] , report its measured melting point.
Found: 145 to 146 °C
